experimental-system: Butyrophilin subfamily 3 member A1 (Homo sapiens, UniProt O00481, M424A)
protocol-text: Displacement of GDP-BODIPY from C-terminal 6His-tagged BTN3A1 M424A mutant (unknown origin) expressed in Escherichia coli BL21 (DE) measured after 60 mins by fluorescence polarization assay
IC50 overview

| smiles-input | IC50 / mM |
| --- | --- |
| C/C(=C\CCCCP(=O)([O-])[O-])CO.[Na+].[Na+] | 5.35 |
| C/C(=C\CCP(=O)(O)O)CO | 3.39 |

* * *

remaining at 24 h, 10 µM overview
protocol-text: Drug uptake in human PBMC assessed as parent compound remaining at 10 uM measured after 24 hrs by UPLC-MS analysis
Assay type: ADME, cell-based
condition-details: PBMC (peripheral blood mononuclear cells), read-out: Drug uptake

| smiles-input | remaining at 24 h, 10 µM |
| --- | --- |
| C/C(=C\CCCCP(=O)(OCOC(=O)C(C)(C)C)OCOC(=O)C(C)(C)C)CO | < 1% |
| C/C(=C\CCP(=O)(OCOC(=O)C(C)(C)C)OCOC(=O)C(C)(C)C)CO | < 1% |

* * *

experimental-system: Butyrophilin subfamily 3 member A1 (Homo sapiens, UniProt O00481)
protocol-text: Activation of BTN3A1 in human PBMC-derived Vgamma9/Vdelta2 T cells assessed as induction of IL2-stimulated IFNgamma production measured after 48 hrs by ELISA
condition-details: read-out: EC50
Sequence (O00481 whole entry): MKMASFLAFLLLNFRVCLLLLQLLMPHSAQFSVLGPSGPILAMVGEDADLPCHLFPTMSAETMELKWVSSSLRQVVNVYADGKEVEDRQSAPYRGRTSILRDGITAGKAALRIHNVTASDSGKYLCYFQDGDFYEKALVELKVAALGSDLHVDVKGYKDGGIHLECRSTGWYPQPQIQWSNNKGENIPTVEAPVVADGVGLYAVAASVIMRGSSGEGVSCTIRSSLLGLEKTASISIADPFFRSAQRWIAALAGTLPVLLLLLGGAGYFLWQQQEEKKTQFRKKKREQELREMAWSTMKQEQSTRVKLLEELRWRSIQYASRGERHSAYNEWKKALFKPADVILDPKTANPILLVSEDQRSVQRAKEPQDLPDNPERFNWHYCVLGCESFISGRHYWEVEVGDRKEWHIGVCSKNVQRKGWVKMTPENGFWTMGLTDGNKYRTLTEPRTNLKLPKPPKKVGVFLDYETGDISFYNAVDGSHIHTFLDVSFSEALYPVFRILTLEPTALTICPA
pEC50: −log10 of the molar value.
pEC50 overview

| compound | sign | pEC50 |
| --- | --- | --- |
| C/C(=C\CCP(=O)(CP(=O)(OCOC(=O)C(C)(C)C)OCOC(=O)C(C)(C)C)OCOC(=O)C(C)(C)C)CO (stereo not given) | < | 6.00 |
| C/C(=C\CCP(=O)(O)O)CO | = | 5.47 |
| C/C(=C\CCP(=O)(O)CP(=O)(O)O)CO | < | 4.00 |
| C/C(=C\CCP(=O)(O)OP(=O)(O)O)CO | = | 8.70 |
| C/C(=C\CCP(=O)(OCOC(=O)C(C)(C)C)OCOC(=O)C(C)(C)C)CO | = | 7.82 |

* * *

experimental-system: Butyrophilin subfamily 3 member A1 (Homo sapiens)
protocol-text: Activation of BTN3A1 in human PBMC-derived Vgamma9/Vdelta2 T cells assessed as induction of IL2-stimulated cell proliferation by measuring increase in CD3+ cells up to 100 uM preincubated for 3 days followed by 11 days incubation post compound washout and subsequent IL2 stimulation for every 3 days measured after 14 days by flow cytometry
Type: cell-based
Sequence (O00481 30-513 limits assumed): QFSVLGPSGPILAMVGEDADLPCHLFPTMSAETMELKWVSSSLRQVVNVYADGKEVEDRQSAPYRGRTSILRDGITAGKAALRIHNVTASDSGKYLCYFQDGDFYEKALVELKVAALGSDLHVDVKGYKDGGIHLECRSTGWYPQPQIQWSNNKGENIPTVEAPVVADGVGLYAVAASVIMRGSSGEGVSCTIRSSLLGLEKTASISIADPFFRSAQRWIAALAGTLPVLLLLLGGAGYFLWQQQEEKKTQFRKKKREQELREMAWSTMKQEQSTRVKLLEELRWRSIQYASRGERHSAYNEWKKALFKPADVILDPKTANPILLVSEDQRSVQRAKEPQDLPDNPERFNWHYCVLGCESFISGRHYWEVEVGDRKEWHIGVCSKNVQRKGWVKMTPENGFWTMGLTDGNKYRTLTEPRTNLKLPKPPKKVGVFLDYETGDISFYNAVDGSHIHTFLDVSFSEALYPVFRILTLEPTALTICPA
Activity calls are given as the source filed them. No cut-off for these calls is given here.
endpoint-label: Activity

| smiles-input | reported-value |
| --- | --- |
| COP(=O)(CCCC/C=C(\C)CO)OC | inactive |
| C/C(=C\CCCCP(=O)([O-])[O-])CO.[Na+].[Na+] | inactive |
| CC(C)=CCCCCP(=O)(OCOC(=O)C(C)(C)C)OCOC(=O)C(C)(C)C | inactive |
| C/C(=C\CCCCP(=O)(OCOC(=O)C(C)(C)C)OCOC(=O)C(C)(C)C)CO | inactive |

* * *

experimental-system: Butyrophilin subfamily 3 member A1 (Homo sapiens, UniProt O00481, R499A)
protocol-text: Displacement of GDP-BODIPY from C-terminal 6His-tagged BTN3A1 R499A mutant (unknown origin) expressed in Escherichia coli BL21 (DE) measured after 60 mins by fluorescence polarization assay
pIC50: −log10 of the molar value.

| smiles-input | pIC50 |
| --- | --- |
| C/C(=C\CCCCP(=O)([O-])[O-])CO.[Na+].[Na+] | 2.43 |
| C/C(=C\CCP(=O)(O)O)CO | 2.42 |
